List of pIC50 tested on cGMP-dependent 3',5'-cyclic phosphodiesterase (Homo sapiens).
Sequence (O00408 whole entry): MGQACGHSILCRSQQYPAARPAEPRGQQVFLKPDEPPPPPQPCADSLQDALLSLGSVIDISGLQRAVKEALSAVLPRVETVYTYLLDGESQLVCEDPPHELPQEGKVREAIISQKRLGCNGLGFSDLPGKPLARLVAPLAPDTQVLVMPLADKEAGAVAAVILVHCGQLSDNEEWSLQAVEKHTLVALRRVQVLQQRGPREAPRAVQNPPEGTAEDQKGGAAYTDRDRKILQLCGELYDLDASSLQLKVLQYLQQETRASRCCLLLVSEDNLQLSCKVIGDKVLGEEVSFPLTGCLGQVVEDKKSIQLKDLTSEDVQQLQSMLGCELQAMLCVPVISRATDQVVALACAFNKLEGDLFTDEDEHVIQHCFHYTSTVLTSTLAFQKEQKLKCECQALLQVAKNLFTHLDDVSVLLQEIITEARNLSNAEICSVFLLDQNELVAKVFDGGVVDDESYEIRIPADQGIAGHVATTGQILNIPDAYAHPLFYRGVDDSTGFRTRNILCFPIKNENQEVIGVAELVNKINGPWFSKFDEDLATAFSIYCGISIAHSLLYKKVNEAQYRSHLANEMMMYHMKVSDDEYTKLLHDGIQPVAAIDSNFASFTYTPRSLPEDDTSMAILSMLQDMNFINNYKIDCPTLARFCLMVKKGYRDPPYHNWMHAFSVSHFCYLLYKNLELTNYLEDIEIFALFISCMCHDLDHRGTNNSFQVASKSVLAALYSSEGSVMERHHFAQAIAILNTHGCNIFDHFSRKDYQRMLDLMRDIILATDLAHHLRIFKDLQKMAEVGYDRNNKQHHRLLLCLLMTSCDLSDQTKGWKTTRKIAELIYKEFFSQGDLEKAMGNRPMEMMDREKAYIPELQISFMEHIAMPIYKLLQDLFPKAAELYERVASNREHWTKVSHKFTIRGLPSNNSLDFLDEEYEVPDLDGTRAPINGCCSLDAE
The value called pIC50 is obtained by taking minus log10 of the concentration in mol/L.

Please review the following examples before continuing.
# input Give cGMP-dependent 3',5'-cyclic phosphodiesterase (Homo sapiens) pIC50 for the following compound: `COCc1nc2c([nH]1)c(=O)n(C)c(=O)n2CC(C)C`
# output 3.67

# input Print cGMP-dependent 3',5'-cyclic phosphodiesterase (Homo sapiens) pIC50 for `CC(C)Cn1c(=O)n(C)c(=O)c2cc3ncn(Cc4ccccc4)c3cc21` .
# output 4.57

Others:
# input State the measured pIC50 (cGMP-dependent 3',5'-cyclic phosphodiesterase (Homo sapiens)) of `CC(C)CCn1c(=O)c2c3nc[nH]c3ccc2n(CC(C)C)c1=O`
# output 4.72

# input For cGMP-dependent 3',5'-cyclic phosphodiesterase (Homo sapiens), give the measured pIC50 of the entry `CC(C)Cn1c(=O)n(C)c(=O)c2c3c(ccc21)ncn3Cc1ccccc1`
# output 4.85
